Test: Relative dissociation constant evaluated against mouse Ribonucleotide Reductase (RR)
MEASURED ENDPOINT: Relative Kd
Lab note: record the figure alone, no unit after it.

INPUT: For the compound "CC(=O)N[C@@H](Cc1ccccc1)C(=O)N[C@H](C(=O)N[C@@H](CC(C)C)C(=O)N[C@@H](CC(=O)O)C(=O)N[C@@H](C)C(=O)N[C@@H](CC(=O)O)C(=O)N[C@@H](Cc1ccc(N)cc1)C(=O)O)[C@H](C)O" , what Relative Kd is on record?
OUTPUT: 23

====

Assay: Relative binding affinity evaluated against mouse Ribonucleotide Reductase (RR)
Non-standard residues stand in square brackets, D forms with d. Residues, ends and D or L forms follow the SMILES beside them. aThr = C[C@H](O)[C@H](N)C(=O)O
MEASURED ENDPOINT: Relative Ki

INPUT: For the compound CC(C)C[C@H](NC(=O)[C@@H](NC(=O)[C@@H](N)Cc1ccccc1)[C@H](C)O)C(=O)N[C@@H](CC(=O)O)C(=O)N[C@@H](C)C(=O)N[C@@H](CC(=O)O)C(=O)N[C@@H](Cc1ccccc1)C(=O)O (H-F[aThr]LDADF-OH) , what Relative Ki is on record?
OUTPUT: > 40

INPUT: For the compound "CC(=O)N[C@@H](Cc1ccccc1)C(=O)N[C@H](C(=O)N[C@@H](CC(C)C)C(=O)N[C@@H](CC(=O)O)C(=O)N[C@@H](C)C(=O)N[C@@H](CC(=O)O)C(=O)N[C@@H](Cc1c[nH]cn1)C(=O)O)[C@H](C)O" , what Relative Ki is on record?
OUTPUT: > 20

INPUT: For the compound CC(=O)N[C@@H](Cc1ccccc1)C(=O)N[C@H](C(=O)N[C@@H](CC(C)C)C(=O)N[C@@H](CC(=O)O)C(=O)N[C@@H](C)C(=O)N[C@@H](CC(=O)O)C(=O)N[C@@H](CC(C)C)C(=O)O)[C@H](C)O (Ac-F[aThr]LDADL-OH) , what Relative Ki is on record?
OUTPUT: > 35

INPUT: For the compound CC(=O)N[C@@H](Cc1ccccc1)C(=O)N[C@H](C(=O)N[C@@H](CC(C)C)C(=O)N[C@@H](CC(=O)O)C(=O)N[C@@H](C)C(=O)N[C@@H](CC(=O)O)C(=O)N[C@@H](Cc1ccccc1)C(=O)N[C@@H](C)C(=O)N[C@@H](C)C(=O)O)[C@H](C)O (Ac-F[aThr]LDADFAA-OH) , what Relative Ki is on record?
OUTPUT: > 35
